# method: Inhibition of recombinant Hepatitis C virus genotype 1b Con1 NS5B RNA dependent RNA polymerase delta21
# Set-up: species or system Hepatitis C virus subtype 1b
readout.kind: IC50 (nM)
Report as a plain number; the unit nM is understood.

Cn1c(-c2ccccn2)c(C2CCCC2)c2ccc(C(=O)NC3(C(=O)Nc4ccc(/C=C/C(=O)O)cc4)CCC3)cc21
67

Please look at the following compound next.
Q: Please report the recorded IC50 for CCOc1cc(NC(=O)C2(NC(=O)c3ccc4c(C5CCCC5)c(-c5ncc(Cl)cn5)n(C)c4c3)CCC2)ccc1/C=C/C(=O)O .
Result: 84

###

# method: Clearance in dog at 2 mg/kg, iv
# Assay type: ADME, organism-based, Canis lupus familiaris
# Parameters: dose 2 mg/kg, route intravenous
# experimental.context: in vivo
readout.kind: clearance (mL/min/kg)
Answer format: numeric, mL/min/kg implied, no suffix.

Q: Need clearance of CCOc1cc(NC(=O)C2(NC(=O)c3ccc4c(C5CCCC5)c(-c5ncc(Cl)cn5)n(C)c4c3)CCC2)ccc1/C=C/C(=O)O , thanks.
Result: 1
